- system-name: T1, human TREM2 expressed on cells (human, UniProt Q9NZC2 19-230)
- T1 construct: BW5147.G.1.4 cells stably expressing human TREM2 together with Dap12, or endogenous TREM2 of primary human myeloid cells; also called huT2 BW; hTREM2 expressing cell line
- T1 sequence: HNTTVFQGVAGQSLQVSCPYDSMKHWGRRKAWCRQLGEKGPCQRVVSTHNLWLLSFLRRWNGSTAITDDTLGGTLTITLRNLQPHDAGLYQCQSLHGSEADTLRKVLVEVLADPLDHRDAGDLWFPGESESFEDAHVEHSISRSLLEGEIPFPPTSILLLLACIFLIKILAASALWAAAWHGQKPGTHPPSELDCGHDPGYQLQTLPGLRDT
- test-summary: FACS, human DCs; also: test concentration or dose not given here
endpoint-name: MFI (MFI)

AL2p-39 (antibody, V domains shown, Fab and IgG formats under one id) VH: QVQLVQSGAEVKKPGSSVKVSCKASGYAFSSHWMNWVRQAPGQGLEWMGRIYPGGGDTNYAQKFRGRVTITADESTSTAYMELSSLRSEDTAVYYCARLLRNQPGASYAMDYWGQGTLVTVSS VL: GVVMTQTPLSLSVTPGQPASISCRSSRSLVHSNQYTYLHWYLQKPGQSPQLLIYKVSNRRSGVPDRFSGSGSGTDFTLKISRVEAEDVGVYYCSQSTRVPYTFGQGTKLEIK = 590
AL2p-8 (antibody, V domains shown, Fab and IgG formats under one id) VH: QVQLVQSGAEVKKPGSSVKVSCKASGYAFSLSWMNWVRQAPGQGLEWMGRIYPGDGDTNYARKFQGRVTITADESTSTAYMELSSLRSEDTAVYYCARLLRNQPGSSYAMDYWGQGTLVTVSS VL: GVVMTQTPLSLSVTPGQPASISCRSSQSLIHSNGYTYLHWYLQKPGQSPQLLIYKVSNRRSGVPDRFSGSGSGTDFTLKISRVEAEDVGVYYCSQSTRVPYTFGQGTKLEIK = 310
AL2p-h77 (antibody, human IgG1, V domains shown, humanized, human IgG1; Fab and IgG formats under one id; also called A2p-h77) VH: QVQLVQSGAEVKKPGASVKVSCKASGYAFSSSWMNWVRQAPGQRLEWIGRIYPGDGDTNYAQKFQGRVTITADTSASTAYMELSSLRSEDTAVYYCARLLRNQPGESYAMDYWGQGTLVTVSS VL: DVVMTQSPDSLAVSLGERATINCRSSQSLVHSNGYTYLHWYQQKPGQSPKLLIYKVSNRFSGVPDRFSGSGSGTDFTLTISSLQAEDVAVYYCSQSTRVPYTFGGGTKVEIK = 162

Ref: patent US20200317776A1
